// cross-study collection: IC50 for Carnitine O-palmitoyltransferase 2, mitochondrial (Homo sapiens)
Target: Carnitine O-palmitoyltransferase 2, mitochondrial (Homo sapiens)
Sequence (P23786 whole entry): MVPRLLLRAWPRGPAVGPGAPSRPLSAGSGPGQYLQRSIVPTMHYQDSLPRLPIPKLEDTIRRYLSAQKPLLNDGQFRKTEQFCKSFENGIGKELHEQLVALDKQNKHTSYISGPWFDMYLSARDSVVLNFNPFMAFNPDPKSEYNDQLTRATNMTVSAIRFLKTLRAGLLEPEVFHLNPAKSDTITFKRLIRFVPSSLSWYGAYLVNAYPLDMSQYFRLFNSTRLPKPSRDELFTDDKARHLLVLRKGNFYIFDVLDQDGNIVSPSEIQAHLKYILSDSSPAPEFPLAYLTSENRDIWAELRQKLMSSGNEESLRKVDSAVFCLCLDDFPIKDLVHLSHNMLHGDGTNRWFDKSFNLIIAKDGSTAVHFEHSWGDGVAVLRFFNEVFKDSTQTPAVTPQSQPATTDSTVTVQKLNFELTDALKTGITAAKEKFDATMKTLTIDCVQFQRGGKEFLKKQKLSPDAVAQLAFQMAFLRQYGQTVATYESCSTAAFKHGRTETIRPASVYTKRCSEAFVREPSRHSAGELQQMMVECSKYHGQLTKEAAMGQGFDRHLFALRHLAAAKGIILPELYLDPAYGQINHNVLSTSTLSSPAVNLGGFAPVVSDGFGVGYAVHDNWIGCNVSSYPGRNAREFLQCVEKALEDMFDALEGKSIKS
Label met when IC50 < 20 µM; otherwise not met.

INSERT INTO measurements (compound, target_entity, label_value) VALUES
  ('Cn1cnc(Br)c1-c1noc([C@H]2CCCCN2C(=O)COc2ccccc2)n1', 'Carnitine O-palmitoyltransferase 2, mitochondrial (Homo sapiens)', 'not met'),
  ('O=C(COc1ccccc1)N1CCCC[C@@H]1c1nc(-c2cccc(B(O)O)c2)no1', 'Carnitine O-palmitoyltransferase 2, mitochondrial (Homo sapiens)', 'met'),
  ('O=C(COc1ccccc1)N1CCCC[C@@H]1c1nc(-c2cccs2)n[nH]1', 'Carnitine O-palmitoyltransferase 2, mitochondrial (Homo sapiens)', 'not met'),
  ('O=C(c1nc([C@H]2CCCCN2C(=O)COc2ccccc2)no1)N1CCC(c2ccncc2)C1 (stereo partly drawn)', 'Carnitine O-palmitoyltransferase 2, mitochondrial (Homo sapiens)', 'met'),
  ('O=C1Nc2ccc(-c3n[nH]c([C@H]4CCCCN4C(=O)COc4ccccc4)n3)cc2CO1', 'Carnitine O-palmitoyltransferase 2, mitochondrial (Homo sapiens)', 'not met'),
  ('CCOc1ccc(C(=O)Nc2ccc(CC(=O)O)cc2)cc1N(CCS(=O)O)S(=O)(=O)c1cc(Cl)ccc1OC', 'Carnitine O-palmitoyltransferase 2, mitochondrial (Homo sapiens)', 'not met'),
  ('Cn1ccc(-c2nc([C@H]3CCCCN3C(=O)COc3ccccc3)no2)n1', 'Carnitine O-palmitoyltransferase 2, mitochondrial (Homo sapiens)', 'not met'),
  ('COc1ccc(Cl)cc1S(=O)(=O)N1CCOc2ccc(C(=O)Nc3ccc(C(=O)O)nc3)cc21', 'Carnitine O-palmitoyltransferase 2, mitochondrial (Homo sapiens)', 'met'),
  ('O=C(COc1ccccc1)N1CCCC[C@@H]1c1nc(-c2cccc(-n3cn[nH]c3=O)c2)no1', 'Carnitine O-palmitoyltransferase 2, mitochondrial (Homo sapiens)', 'not met'),
  ('O=C(NCc1ccccc1)[C@H]1CCCCN1C(=O)COc1ccccc1', 'Carnitine O-palmitoyltransferase 2, mitochondrial (Homo sapiens)', 'not met'),
  ('COc1ccc(Cl)cc1S(=O)(=O)N1CC(C(=O)O)Oc2ccc(C(=O)Nc3ccc(F)cc3)cc21 (stereo not drawn)', 'Carnitine O-palmitoyltransferase 2, mitochondrial (Homo sapiens)', 'not met'),
  ('COc1ccc(Cl)cc1S(=O)(=O)c1cn(CCC(=O)O)c2ccc(C(=O)Nc3ccccc3)cc12', 'Carnitine O-palmitoyltransferase 2, mitochondrial (Homo sapiens)', 'not met'),
  ('COc1ccc(-c2noc([C@H]3CCCCN3C(=O)C#Cc3ccccc3)n2)cc1', 'Carnitine O-palmitoyltransferase 2, mitochondrial (Homo sapiens)', 'not met'),
  ('COc1ccc(Cl)cc1S(=O)(=O)Nc1cccc(C#Cc2ccc(C(=O)O)cc2)c1', 'Carnitine O-palmitoyltransferase 2, mitochondrial (Homo sapiens)', 'not met'),
  ('O=C([C@H]1CCCCN1C(=O)COc1ccccc1)N1Cc2cc(Cl)c(N3CCOCC3)cc2C1', 'Carnitine O-palmitoyltransferase 2, mitochondrial (Homo sapiens)', 'met'),
  ('COc1ccc(C)cc1S(=O)(=O)N1CCc2ccc(C(=O)Nc3ccc(CC(=O)O)cc3)cc21', 'Carnitine O-palmitoyltransferase 2, mitochondrial (Homo sapiens)', 'not met'),
  ('COc1ccc(Cl)cc1Sc1c[nH]c2ccc(C(=O)Nc3ccc(C(=O)O)cc3)cc12', 'Carnitine O-palmitoyltransferase 2, mitochondrial (Homo sapiens)', 'met'),
  ('COCCN(C)C(=O)c1cncc(-c2noc([C@H]3CCCCN3C(=O)COc3ccccc3)n2)c1', 'Carnitine O-palmitoyltransferase 2, mitochondrial (Homo sapiens)', 'met'),
  ('CCOc1ccc2c(c1)CN(C(=O)[C@H]1CCCCN1C(=O)COc1ccccc1)C2', 'Carnitine O-palmitoyltransferase 2, mitochondrial (Homo sapiens)', 'met'),
  ('Cc1sc([C@H]2CCCCN2C(=O)COc2ccccc2)nc1-c1cccc(C(=O)O)c1', 'Carnitine O-palmitoyltransferase 2, mitochondrial (Homo sapiens)', 'not met'),
  ('O=C(O)c1ccc(NC(=O)c2ccc(Cl)c(NS(=O)(=O)c3cc(Cl)cc(Cl)c3)c2)cc1', 'Carnitine O-palmitoyltransferase 2, mitochondrial (Homo sapiens)', 'not met'),
  ('COc1ccc(Cl)cc1S(=O)(=O)N1CCOc2ccc(C(=O)Nc3ccccc3)cc21', 'Carnitine O-palmitoyltransferase 2, mitochondrial (Homo sapiens)', 'not met'),
  ('O=C(O)C(=O)c1ccc(O)cc1', 'Carnitine O-palmitoyltransferase 2, mitochondrial (Homo sapiens)', 'not met'),
  ('COc1ccc(C)cc1S(=O)(=O)N1CCCc2ccc(C(=O)Nc3nc(CC(=O)O)cs3)cc21', 'Carnitine O-palmitoyltransferase 2, mitochondrial (Homo sapiens)', 'not met'),
  ('CCn1cc(S(=O)(=O)c2cc(Cl)ccc2OC)c2cc(C(=O)Nc3ccc(C(=O)O)cc3)ccc21', 'Carnitine O-palmitoyltransferase 2, mitochondrial (Homo sapiens)', 'met'),
  ('CC(=O)Nc1cc(F)cc(-c2noc([C@H]3CCCCN3C(=O)COc3ccccc3)n2)c1', 'Carnitine O-palmitoyltransferase 2, mitochondrial (Homo sapiens)', 'not met'),
  ('CCCCCCCCCCCCCCCC[C@@]1(O)C[N+](C)(C)CCO1', 'Carnitine O-palmitoyltransferase 2, mitochondrial (Homo sapiens)', 'not met'),
  ('N#Cc1ccc(-c2nc([C@H]3CCCCN3C(=O)COc3ccccc3)no2)cn1', 'Carnitine O-palmitoyltransferase 2, mitochondrial (Homo sapiens)', 'met'),
  ('O=C(c1nc([C@H]2CCCCN2C(=O)COc2ccccc2)no1)N1CCOCC1', 'Carnitine O-palmitoyltransferase 2, mitochondrial (Homo sapiens)', 'not met'),
  ('COc1ccc(Cl)cc1Cc1cn(C)c2ccc(C(=O)Nc3ccc(C(=O)O)cc3)cc12', 'Carnitine O-palmitoyltransferase 2, mitochondrial (Homo sapiens)', 'met'),
  ('O=C(O)c1ccc(NC(=O)c2ccc3c(c2)N(S(=O)(=O)c2cccc(Cl)c2)CC[S+]3[O-])cc1 (stereo not drawn)', 'Carnitine O-palmitoyltransferase 2, mitochondrial (Homo sapiens)', 'not met'),
  ('Cc1cc(C)cc(S(=O)(=O)c2n[nH]c3ccc(C(=O)Nc4ccc(C(=O)O)cc4)cc23)c1', 'Carnitine O-palmitoyltransferase 2, mitochondrial (Homo sapiens)', 'met'),
  ('Cc1cc(C)cc(S(=O)(=O)N2CCc3ccc(C(=O)Nc4nc(CC(=O)O)cs4)cc32)c1', 'Carnitine O-palmitoyltransferase 2, mitochondrial (Homo sapiens)', 'not met'),
  ('Nc1cccc(-c2nc([C@H]3CCCCN3C(=O)COc3ccccc3)no2)n1', 'Carnitine O-palmitoyltransferase 2, mitochondrial (Homo sapiens)', 'not met'),
  ('CCN(c1cc(C(=O)Nc2nc(CC(=O)O)cs2)cc2c1OCO2)S(=O)(=O)c1cc(Cl)ccc1OC', 'Carnitine O-palmitoyltransferase 2, mitochondrial (Homo sapiens)', 'not met'),
  ('Cc1cc(C)cc(S(=O)(=O)N2CCS(=O)(=O)c3ccc(C(=O)Nc4ccc(C(=O)O)cc4)cc32)c1', 'Carnitine O-palmitoyltransferase 2, mitochondrial (Homo sapiens)', 'met'),
  ('COc1ccc(Cl)cc1Sc1cn(C)c2ccc(C(=O)Nc3ccc(C(=O)O)cc3)cc12', 'Carnitine O-palmitoyltransferase 2, mitochondrial (Homo sapiens)', 'not met'),
  ('Cc1cc(C)cc(S(=O)(=O)c2nn(CCC(=O)O)c3ccc(C(=O)Nc4ccccc4)cc23)c1', 'Carnitine O-palmitoyltransferase 2, mitochondrial (Homo sapiens)', 'not met');
